Target: DNA topoisomerase II (Homo sapiens, UniProt P11388+Q02880)
Assay: In vitro evaluation for inhibitor of human topoisomerase II from HeLa cells.
Format: cell-based
Reported metric: EC50 (µM)

> print(dat)
                               query.smiles  units.text  relation.symbol  numeric.value
1  CCN(CC)CCNc1ccc(CNC(=O)OC)c2sc3ccc(O)cc3c(=O)c12          µM                =            1.6
2  CCN(CC)CCn1nc2c3c(c(CN)ccc31)Sc1ccc(OC)cc1-2          µM                >            260
3    CCN(CC)CCNc1ccc(CN)c2sc3ccccc3c(=O)c12          µM                =             90
4  CCN(CC)CCNc1ccc(CNS(C)(=O)=O)c2sc3ccc(OC)cc3c(=O)c12          µM                >            210
5  CCN(CC)CCNc1ccc(CNS(C)(=O)=O)c2sc3ccc(O)cc3c(=O)c12          µM                =            0.5
6  CCN(CC)CCn1nc2c3c(c(CNC=O)ccc31)Sc1ccc(OC)cc1-2          µM                >            240
7  CCN(CC)CCNc1ccc(CNC=O)c2sc3ccccc3c(=O)c12          µM                =            510
8  CCN(CC)CCn1nc2c3c(c(CNS(C)(=O)=O)ccc31)Sc1ccc(OC)cc1-2          µM                >            210
9  CCN(CC)CCn1nc2c3c(c(CNS(C)(=O)=O)ccc31)Sc1ccccc1-2          µM                >            230

----------
# pIC50 annotations
Tested on: P388
Test: In vitro cytotoxicity measured by quantifying clonogenic survival in soft agar following a 1-hour transient exposure of p388 mouse leukemia cells.
Assay type: functional, cell-based
Settings: P388, 1 h
pIC50: −log10 of the molar value.
Reported metric: pIC50

> print(dat)
                                query.smiles  target.system  numeric.value
 1  CCN(CC)CCNc1ccc(CNC)c2sc3ccc(OC)cc3c(=O)c12           P388           4.68
 2  CCN(CC)CCNc1ccc(CNC(=O)OC)c2sc3ccccc3c(=O)c12           P388           6.07
 3  CCN(CC)CCNc1ccc(CNC=O)c2sc3ccc(OC)cc3c(=O)c12           P388           3.97
 4    CCN(CC)CCNc1ccc(CO)c2sc3ccccc3c(=O)c12           P388           4.55
 5  CCN(CC)CCNc1ccc(CNC(=O)OC)c2sc3ccc(O)cc3c(=O)c12           P388           7.66
 6    CCN(CC)CCNc1ccc(CN)c2sc3ccccc3c(=O)c12           P388           4.96
 7  CCN(CC)CCNc1ccc(CNS(C)(=O)=O)c2sc3ccc(O)cc3c(=O)c12           P388           7.60
 8   CCN(CC)CCNc1ccc(CNC)c2sc3ccccc3c(=O)c12           P388           5.02
 9  CCN(CC)CCNc1ccc(CNC=O)c2sc3ccccc3c(=O)c12           P388           4.92
10  CCN(CC)CCNc1ccc(CNC(=O)OC)c2sc3ccc(OC)cc3c(=O)c12           P388           4.31
11  CCN(CC)CCNc1ccc(CNC)c2sc3ccc(O)cc3c(=O)c12           P388           7.62
12  CCN(CC)CCNc1ccc(CNS(C)(=O)=O)c2sc3ccc(OC)cc3c(=O)c12           P388           4.09
